TARGET_UNDER_TEST: Cyclin-dependent kinase 4/cyclin D1 (Homo sapiens)
Sequence (P11802 whole entry): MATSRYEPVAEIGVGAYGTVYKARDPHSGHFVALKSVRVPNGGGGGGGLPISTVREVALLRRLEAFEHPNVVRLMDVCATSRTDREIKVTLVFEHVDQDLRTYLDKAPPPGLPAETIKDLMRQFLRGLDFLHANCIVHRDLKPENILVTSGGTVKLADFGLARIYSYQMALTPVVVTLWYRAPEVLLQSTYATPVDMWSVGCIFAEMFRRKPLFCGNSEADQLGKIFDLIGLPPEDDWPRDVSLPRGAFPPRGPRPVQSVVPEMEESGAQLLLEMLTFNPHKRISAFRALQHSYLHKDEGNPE
Sequence (P24385 whole entry, further chain): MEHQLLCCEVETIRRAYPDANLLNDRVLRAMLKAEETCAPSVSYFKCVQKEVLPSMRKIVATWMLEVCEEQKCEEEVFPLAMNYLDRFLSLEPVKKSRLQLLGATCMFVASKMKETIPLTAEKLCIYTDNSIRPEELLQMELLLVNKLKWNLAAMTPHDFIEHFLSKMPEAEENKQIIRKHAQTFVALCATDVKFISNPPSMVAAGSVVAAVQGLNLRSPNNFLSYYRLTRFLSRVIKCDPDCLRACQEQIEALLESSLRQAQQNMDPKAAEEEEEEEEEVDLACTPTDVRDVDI
ASSAY_SUMMARY: Inhibition of recombinant human full-length GST-tagged CDK4/cyclinD1 expressed in baculovirus expression system using PEP as substrate incubated for 3 mins in presence of ATP by TR-FRET assay
I'd be grateful if you could share measured pIC50 for these entries.
One number for each entry, as −log10 of the molar value.

Would you please look over these solved cases?
CC(=O)c1c(C)c2cnc(Nc3ccc(OCCN(C)C)c(F)c3)nc2n(C2CCCC2)c1=O; 8.52
CC(=O)c1c(C)c2cnc(Nc3ccc(N(C)CCN(C)C)cc3)nc2n(C23CC(C2)C3)c1=O; 7.52

In the following, a different compound is considered.
Find the recorded pIC50 belonging to CN1CCN(c2ccc(Nc3ncc4c(n3)N(C3CCCC3)C3(CCNC3=O)C4)cc2F)CC1 (stereo unspecified) and report it.
7.29
